# Target Entity: TAS2R38 (Homo sapiens, UniProt P59533, A49P/I296V)
# Construct: expressed in transfected cells; host or cells: HEK-293T cells stably expressing the chimeric G-protein subunit G16gust44
# Sequence (P59533 1-333 A49P/I296V): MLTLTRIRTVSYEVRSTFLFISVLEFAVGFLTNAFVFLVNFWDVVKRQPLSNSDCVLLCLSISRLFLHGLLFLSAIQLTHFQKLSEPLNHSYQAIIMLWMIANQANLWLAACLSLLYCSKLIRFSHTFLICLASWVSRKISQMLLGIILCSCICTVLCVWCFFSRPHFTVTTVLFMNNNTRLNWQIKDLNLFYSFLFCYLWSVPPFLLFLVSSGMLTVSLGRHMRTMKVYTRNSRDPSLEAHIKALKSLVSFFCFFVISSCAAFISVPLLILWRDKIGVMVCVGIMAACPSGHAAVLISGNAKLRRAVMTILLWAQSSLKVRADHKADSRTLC
# Test Name: Calcium imaging (FLIPR) of TAS2R38 transfected cells, antagonists applied as mixture with TAS2R38 agonists
# Format: cell-based
# Experimental Setup: EC50 (result obtained for propylthiouracil), +0.5 mM diethylthiourea
pEC50: −log10 of the molar value.

{"Molecule": "NC(=S)Nc1ccccc1 [phenylthiourea, phenylthiocarbamide, reference compound]", "pEC50": 5.20}

---

# Target Entity: TAS2R38 (Homo sapiens, UniProt P59533, A49P/I296V)
# Construct: expressed in transfected cells; host or cells: HEK-293T cells stably expressing the chimeric G-protein subunit G16gust44
# Test Name: Calcium imaging (FLIPR) of TAS2R38 transfected cells, antagonists applied as mixture with TAS2R38 agonists
# Assay type: cell-based
# Experimental Setup: EC50 (result obtained for propylthiouracil), +0.25 mM diethylthiourea

{"Compound": "NC(=S)Nc1ccccc1 [phenylthiourea, phenylthiocarbamide, reference compound]", "EC50 / µM": 3.4}

---

Listing: EC50 of selected compounds
# Target Entity: TAS2R38 (Homo sapiens, UniProt P59533, A49P/I296V)
# Construct: expressed in transfected cells; host or cells: HEK-293T cells stably expressing the chimeric G-protein subunit G16gust44
# Test Name: Calcium imaging (FLIPR) of TAS2R38-PAV transfected HEK-293T G16gust44 cells, activation by compound alone
# Assay type: cell-based
# Experimental Setup: TAS2R38-PAV transfected cells, compound alone, FIG. 2; read-out: EC50 (activation of the receptor)

{"Compound": "CNC(=S)NC [dimethylthiourea, N,N′-dimethylthiourea]", "Target Entity": "TAS2R38 (Homo sapiens, UniProt P59533, A49P/I296V)", "EC50": "500 µM"}
{"Compound": "Sc1nc2ccccc2[nH]1 [mercaptobenzimidazole, 2-mercaptobenzimidazole]", "Target Entity": "TAS2R38 (Homo sapiens, UniProt P59533, A49P/I296V)", "EC50": "1 µM"}
